assay: qHTS assay to test for compound auto fluorescence at 535 nm (green) in HEK293 cell free culture (AID 720682); conditions: cell-free medium, green autofluorescence 485/535 nm, stronger effect = higher value; series mostly up to 91.3 µM; note: % is set by controls: 0 for no effect and ±100 for the full control effect
The source made the active and inactive calls. Calls come from the whole dose curve; as a rule, active = well fitted curve in the direction sought with a large enough effect in the repeat runs; inconclusive = weak or mixed curves; inactive = flat fitted curve, though single readings scatter.
metric: activity change

Some molecules with known activity change results, for comparison:
1. C[Si](C)O[Si](C)(C)O[Si](C)(C)O[Si](C)C: inactive
2. CCOc1cc(OCC)c(C(=O)CCC(=O)O)cc1OCC: inactive
3. C[C@@H](C1=C(CCN(C)C)Cc2ccccc21)c1ccccn1: inactive
4. O=C(C(=O)c1ccc(Br)cc1)c1ccc(Br)cc1: 0.0143% [at 18.6 µM] (inactive)
5. C1CCC2OC2C1 (stereo not drawn): inactive

Ask: What value of activity change has been recorded for this entry: COc1ccc(OC)c(OC)c1
Result: inactive

Ask: Which activity change reading was recorded for the molecule O=C(O)/C=C/c1cnc[nH]1 ?
Result: inactive

Ask: What activity change value was documented for this molecule, COc1ccc2[nH]c(S(=O)Cc3ncc(C)c(OC)c3C)nc2n1 (stereo not drawn) ?
Result: inactive

Ask: Entry O=C(O)[C@@H]1[C@H]2C[C@H]3c4[nH]c5ccccc5c4CCN3C[C@@H]2CC[C@@H]1O : reported activity change = ?
Result: -0.0263% [at 18.6 µM] (inactive)

Ask: Look up activity change for this molecule: CCCC(=O)OCC
Result: inactive

---

Target: Voltage-gated inwardly rectifying potassium channel KCNH2 (Homo sapiens) (UniProt Q12809)
Sequence (Q12809 whole entry, looked up): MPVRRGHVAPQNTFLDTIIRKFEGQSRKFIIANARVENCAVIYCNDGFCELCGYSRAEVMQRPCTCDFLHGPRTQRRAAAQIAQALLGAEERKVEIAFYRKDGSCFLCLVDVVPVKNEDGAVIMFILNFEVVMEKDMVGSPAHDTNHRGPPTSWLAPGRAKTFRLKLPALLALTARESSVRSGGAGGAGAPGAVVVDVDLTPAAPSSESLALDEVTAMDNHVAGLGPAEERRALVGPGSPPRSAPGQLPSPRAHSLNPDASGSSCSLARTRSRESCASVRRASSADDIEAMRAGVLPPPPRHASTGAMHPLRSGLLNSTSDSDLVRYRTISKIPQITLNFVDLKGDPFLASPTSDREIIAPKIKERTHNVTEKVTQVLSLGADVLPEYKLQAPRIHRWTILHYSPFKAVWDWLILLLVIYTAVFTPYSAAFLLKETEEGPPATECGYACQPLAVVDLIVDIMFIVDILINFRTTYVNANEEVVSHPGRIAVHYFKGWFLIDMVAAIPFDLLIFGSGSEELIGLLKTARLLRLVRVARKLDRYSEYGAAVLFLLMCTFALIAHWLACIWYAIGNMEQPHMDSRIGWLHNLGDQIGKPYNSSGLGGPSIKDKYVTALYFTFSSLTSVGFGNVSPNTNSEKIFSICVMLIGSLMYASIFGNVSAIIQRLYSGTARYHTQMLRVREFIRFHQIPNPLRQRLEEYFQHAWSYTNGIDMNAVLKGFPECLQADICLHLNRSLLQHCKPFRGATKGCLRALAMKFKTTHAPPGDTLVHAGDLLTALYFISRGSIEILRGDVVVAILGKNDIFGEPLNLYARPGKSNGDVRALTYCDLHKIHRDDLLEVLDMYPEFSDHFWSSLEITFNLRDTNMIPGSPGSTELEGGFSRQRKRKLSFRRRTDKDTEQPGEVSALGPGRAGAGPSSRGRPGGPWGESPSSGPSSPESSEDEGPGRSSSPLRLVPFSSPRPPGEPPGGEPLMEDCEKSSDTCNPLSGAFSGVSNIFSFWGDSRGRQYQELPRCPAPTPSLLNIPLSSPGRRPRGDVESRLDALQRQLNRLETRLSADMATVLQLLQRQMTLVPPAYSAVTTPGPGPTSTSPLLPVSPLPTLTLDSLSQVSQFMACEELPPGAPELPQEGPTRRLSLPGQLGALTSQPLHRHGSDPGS
Assay: Human Ether-a-go-go-Related Gene (hERG) channel small molecule antagonists: fluorescence cell-based qHTS assay (AID 1671200); note: nearly all actives have a fitted effect of over 50% in size
Settings: hERG-U2OS cells, FluxOR thallium flux fluorescence; series mostly up to 76.8 µM
From the text: National Center for Advancing Translational Sciences [NCATS] U.S. Environmental Protection Agency [EPA] National Institutes of Environmental Health Sciences [NIEHS] National Toxicology Program [NTP] U.S. Food and Drug Administration [FDA] Mutations in the hERG channel cause Long QT (LQT) syndrome. LQT syndrome is a cardiac disorder which can cause ventricle arrhythmia and sudden death. Additionally, compounds which block the hERG channel can cause acquired LQT syndrome. […]
Records with an inconclusive call do not appear. Calls of active or inactive are those of the source. The call rests on the fitted dose curve; in most records, active means well fitted inhibition curve with a large enough effect in the repeat runs; inconclusive means weak or mixed curves; inactive means flat fitted curve, though single readings scatter.
Output constraint: value belongs to active, inactive

Ask: Test call, this compound: CC/C(=C\C(=N/O)C(N)=O)C(C)[N+](=O)[O-] (configuration not stated)
Result: inactive

Ask: Please share the test call associated with CCCCC(CC)COCCCN (configuration not stated) .
Result: active

Ask: What is the recorded call for this compound in the test? CC(C)CCCC(C)CCO (configuration not stated)
Result: inactive

Ask: What is the recorded call for this compound in the test? O=C(O)[C@@H]1[C@H]2C[C@H]3c4[nH]c5ccccc5c4CCN3C[C@@H]2CC[C@@H]1O
Result: inactive

Ask: Can you look up the reported call for Cc1ccc2c(ccc3ccccc32)c1 for me?
Result: inactive

Ask: Each compound tested received a call. Report the one for CC(C)(C)c1ccc(OCC2CO2)cc1 (configuration not stated) .
Result: inactive

Ask: Given CCOc1nc2cccc(C(=O)O)c2n1Cc1ccc(-c2ccccc2-c2nn[nH]n2)cc1 , state the outcome it received in this test.
Result: inactive

---

experiment: qHTS assay to identify small molecule agonists of the peroxisome proliferator-activated receptor delta (PPARd) signaling pathway - cell viability counter screen (AID 743211); conditions: PPARd-bla HEK293H viability, CellTiter-Glo luminescence, 17 h; series mostly up to 62.6 µM; note: nearly all actives have a fitted effect of over 55% in size
Records with an inconclusive call do not appear. Active and inactive are the calls of the source. Calls follow the shape of the dose curve; as a rule, active = well fitted cell-killing curve with a large enough effect in the repeat runs; inconclusive = weak or mixed curves; inactive = no such curve, though single readings can be large or run the other way.
Can you answer with just one of these options? 1 (active), 0 (inactive)

Ask: Could you check what this test reported for Cc1cccc(C(C)(C)C)c1O ?
Result: 0

Ask: State the result this test recorded for O=C(O)/C=C/c1cnc[nH]1 .
Result: 0

Ask: What call does the record list for c1ccc(-c2nc[nH]c2-c2ccccc2)cc1 ?
Result: 0

Ask: Dear colleague, could you share the recorded outcome for CCCc1ccccc1 when you have a moment?
Result: 0

Ask: Recorded test call requested for N[C@H]1C(O)O[C@H](CO)[C@H](O)[C@@H]1O (stereo partly specified)
Result: 0

Ask: Please share the test call associated with CCN(CC)C(C)CN1c2ccccc2Sc2ccccc21 (stereo unspecified) .
Result: 0

Ask: Per the records of this test, what outcome belongs to Cc1ccc(C(=O)C(C)CN2CCCCC2)cc1 (stereo unspecified) ?
Result: 0

Ask: I'd appreciate the recorded outcome for O=C(CCN1CCN2CCCC2C1)N1c2ccccc2Sc2ccc(Cl)cc21 (stereo unspecified) from this test.
Result: 0

Ask: Call for entry CCC(C)N(C)C(=O)c1cc2ccccc2c(-c2ccccc2Cl)n1 (stereo unspecified) :
Result: 0

Ask: Hi team, can someone confirm the assay call for CC(C(=O)O)c1ccc(C(=O)c2ccccc2)s1 (stereo unspecified) ?
Result: 0

Ask: What classification did C1=Cc2ccccc2C1 end up with in this test?
Result: 0

Ask: Which outcome was entered for the molecule O=S1(=O)N=C(O)c2ccccc21 in this test?
Result: 0

Ask: Answer briefly: the call reported for CC(=O)NCCCS(=O)(=O)O in this assay.
Result: 0

Ask: Answer briefly: the call reported for CN(C)CC/C=C1\c2ccccc2COc2ccccc21 in this assay.
Result: 1

Ask: Which result was noted for this molecule in the test: CC(C)(C)c1cc(CO)cc(C(C)(C)C)c1O
Result: 0

Ask: Could you please tell me the result logged for C=C(C)C(=O)OCCN(C)C in this assay?
Result: 0

Ask: What is the recorded call for this molecule in the test? Nc1ccc(C(=O)Nc2ccccc2N)cc1
Result: 0

Ask: What outcome does the record of this test show for CCc1nn(C2CCCCC2)c2cc(C3(C#N)CCC(C(=O)O)CC3)ccc12 (stereo unspecified) ?
Result: 0

Ask: Entry O=C(O)Cn1c(C(=O)Nc2nc(-c3ccccc3Cl)cs2)cc2ccccc21 : call = ?
Result: 0

Ask: Record request — test call for Cc1ccccn1
Result: 0

Ask: Given CC(C)(Oc1ccc(Cl)cc1)C(=O)OCCCOC(=O)C(C)(C)Oc1ccc(Cl)cc1 , state the outcome it received in this test.
Result: 0

Ask: What did this assay record as the result for CCCCCCc1ccc(N)cc1 ?
Result: 0

Ask: Name the outcome recorded for CC(C)CCCCCCOC(=O)c1ccc(C(=O)OCCCCCCC(C)C)c(C(=O)OCCCCCCC(C)C)c1 in the assay.
Result: 0

Ask: Call for entry O=C1[C@H](CC[C@H](O)c2ccc(F)cc2)[C@@H](c2ccc(O)cc2)N1c1ccc(F)cc1 :
Result: 0

Ask: Hi, do you know how CCN(CC)CCNC(C(=O)OCCC(C)C)c1ccccc1 (stereo unspecified) came out in this test?
Result: 0

Ask: Identify the outcome logged in this assay for the molecule shown: CC1=CC(=O)/C(=C(/C)O)C(=O)O1
Result: 0

Ask: Just curious, what result did NCCCN(CCO)CCO get here?
Result: 0

Ask: Dear all, I need the recorded test outcome for C=CC[N+]1([C@H]2C[C@H]3[C@@H]4CC[C@H]5C[C@H](OC(C)=O)[C@@H](N6CCCCC6)C[C@]5(C)[C@H]4CC[C@]3(C)[C@H]2OC(=O)CC)CCCCC1 , thank you.
Result: 0

Ask: Which result was noted for this molecule in the test: Cc1ccccc1N=Nc1ccc(N=Nc2c(O)ccc3ccccc23)c(C)c1
Result: 0

Ask: Please state the recorded outcome for this molecule: CC(=O)CC(=O)c1ccccc1
Result: 0

Ask: Outcome logged for O=C(c1ccc(O)cc1)c1ccc(O)cc1 in this assay:
Result: 0

Ask: Test call, this molecule: NCCCOCCOCCOCCCN
Result: 0

Ask: So what was the verdict on CC(C)(C)C1CCCCC1O (stereo unspecified) in this test?
Result: 0

Ask: # outcome recorded in this test, key = Oc1ccc(C(O)CNCCCCCCNCC(O)c2ccc(O)c(O)c2)cc1O (stereo unspecified)
Result: 0

Ask: Entry Cc1ccc2c(ccc3ccccc32)c1 : call = ?
Result: 0

Ask: Tell me the recorded outcome of this test for c1ccc(OCc2ccc(CCCN3CCOCC3)cc2)cc1 .
Result: 0

---

target: Cytochrome P450 2D6 (Homo sapiens) (UniProt P10635); assay: Cytochrome P450 Family 2 Subfamily D Member 6 (CYP2D6) small molecule antagonists: luciferase reporter qHTS assay (AID 1671196); conditions: P450-Glo CYP2D6 enzyme assay, luciferin luminescence, 1 h; series mostly up to 115 µM; note: nearly all actives have a fitted effect of over 50% in size
Sequence (P10635 whole entry, looked up): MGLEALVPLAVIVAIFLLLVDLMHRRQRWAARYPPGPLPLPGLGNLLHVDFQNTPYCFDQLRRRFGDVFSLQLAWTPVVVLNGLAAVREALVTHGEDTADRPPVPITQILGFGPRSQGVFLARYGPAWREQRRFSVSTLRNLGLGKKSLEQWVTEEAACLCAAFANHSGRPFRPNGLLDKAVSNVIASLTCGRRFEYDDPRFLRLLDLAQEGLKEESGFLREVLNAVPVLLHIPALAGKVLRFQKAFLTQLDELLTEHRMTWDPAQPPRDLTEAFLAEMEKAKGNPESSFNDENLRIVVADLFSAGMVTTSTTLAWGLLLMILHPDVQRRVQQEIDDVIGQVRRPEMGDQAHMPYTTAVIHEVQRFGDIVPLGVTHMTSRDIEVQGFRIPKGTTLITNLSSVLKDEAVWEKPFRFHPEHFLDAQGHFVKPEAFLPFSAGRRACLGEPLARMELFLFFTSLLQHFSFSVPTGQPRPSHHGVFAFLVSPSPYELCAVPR
Inconclusive results are not listed. Activity calls are given as the source filed them. Calls follow the shape of the dose curve; as a rule, active = well fitted inhibition curve with a large enough effect in the repeat runs; inconclusive = weak or mixed curves; inactive = no such curve, though single readings can be large or run the other way.
Give one outcome, nothing more. List: active, inactive

Ask: Kindly provide the recorded test outcome for the following molecule: CC(C)CCCC(C)CCO (centres undefined)
Result: inactive

Ask: I would be grateful if you could indicate the recorded call for CCCCC(CC)(CO)CO .
Result: inactive

Ask: Fill in: this test's call for Oc1ccc(Sc2ccc(O)cc2)cc1 is ___
Result: active

Ask: What did the test return for N#Cc1cc2ccccc2c2ccccc12 ?
Result: inactive

Ask: Could you check what this test reported for CCCCCCCCC(CO)CCCCCC (centres undefined) ?
Result: inactive

Ask: # outcome recorded in this test, key = C[C@H](CCC(=O)O)[C@H]1CC[C@H]2[C@@H]3[C@H](O)C[C@@H]4C[C@H](O)CC[C@]4(C)[C@H]3CC[C@]12C
Result: active

Ask: Field: outcome | Entry: CC(=O)O[C@@H]1C(=O)O[C@@H]2[C@H]1OC(=O)[C@@H]2OC(C)=O
Result: inactive

Ask: Recorded call for O=C(c1ccccc1)c1ccc2n1CCC2C(=O)O (centres undefined) ?
Result: inactive

Ask: Could you kindly confirm the outcome this assay logged for N#Cc1c(F)cccc1F ?
Result: inactive

Ask: // param item: COC(=O)C(C)=O ; yields the recorded call
Result: inactive

Ask: Recorded call for CC(=O)Nc1ccc(/C=N/NC(N)=S)cc1 ?
Result: inactive

Ask: Name the outcome recorded for CC(C)(C)c1ccc(S)cc1 in the assay.
Result: inactive

Ask: For Oc1ccc2c(c1)OCO2 , which call appears in the assay record?
Result: active

Ask: What was the test verdict on Nc1ccc(C(=O)Nc2ccccc2N)cc1 ?
Result: inactive
